test system: α-synuclein; experiment: Expression of α-synuclein in neuronal cultures (cells P19); type: cell-based; details: untreated cells 100%
Kindly return satisfied if reported Expression of α-synuclein is no lower than 60%; return not satisfied if it is lower.

Use the examples below as a reference point.
input: State whether the measured Expression of α-synuclein reaches 60%, counting equality as reaching it, for CCCCCC=CCC=CCC=CCC=CCCC(O)C(=O)OP(=O)(OCC)OCC (stereo not shown)
output: not satisfied

input: Another: CCCCCC=CCC=CCCCCCCC(OC=O)C(=O)OCC (stereo not shown)
output: satisfied

input: Another: CCC=CCC=CCC=CCC=CCC=CCCC(C)C(=O)[O-].[Na+] (stereo not shown)
output: satisfied

input: Another: CCCCCC=CCC=CCCCCCCC(O)C(=O)O (stereo not shown) [182A1, 2-hydroxy-9,12-octadecadienoic acid]
output: not satisfied

Consider the record given below.
input: State whether the measured Expression of α-synuclein reaches 60%, counting equality as reaching it, for CCCCCC=CCC=CCC=CCC=CCCC(C)C(=O)[O-].[Na+] (stereo not shown)
output: satisfied

Cited source: patent US11253497B2
